Provide the recorded Percent Effect for the entries that follow.
- Test system: Wolbachia pipientis
- Assay text: Anti-Wolbachia Cell-Based Screen
- Assay type: functional
- Parameters: scale not given: in the data most compounds retested in dose-response had high values
- Recorded conditions: 5 µM
The whole screen tested about 48,000 compounds, of which about 13,000 (27%) showed an effect of 50% or more. The list shows a part of the results.
Field format: number, assumed %, no unit text.

Exam item: Can you share its Percent Effect? I mean this compound: `COc1nc(C)cc(C)c1CNC(=O)N(C)Cc1cnn(C)c1`
Marked response: -3.346

Exam item: For `Nc1c(N2CCCCC2)ncnc1N1CCOCC1` then?
Marked response: 114.1

Exam item: And the next one, Cc1nc(CCN)cc(N2CCC(O)(c3ccccc3)C2)n1 (stereo not drawn) ?
Marked response: -17.84

Exam item: Continue with `Cc1nn(C)c(N2CCOCC2)c1CNCc1ccc2c(c1)OCO2`
Marked response: 96.35

Exam item: Queued: `COCc1cccc(CNCc2c(C)nn(C)c2N2CCOCC2)c1`
Marked response: 117.6

Exam item: Can you handle `Clc1cnccc1N1CCCOCC1` next?
Marked response: 1.077

Exam item: // next record `O=C(c1c2c(N3CCCC3)ncnc2n2ccccc12)N1CCOCC1`
Marked response: -6.579

Exam item: Note, next up: `O=C(CSC1=NS(=O)(=O)c2cc(F)ccc2N1)c1ccc(Cl)cc1`
Marked response: 4.147

Exam item: Field entry: `CCn1nc(CC(C)C)cc1C(=O)NCCS(=O)(=O)N(C)C`
Marked response: 162.2

Exam item: Follow-up entry: `O=C(CSC1=NS(=O)(=O)c2cc(Cl)ccc2N1)c1ccccc1`
Marked response: 112.7

Exam item: How about CC(=O)N1CCCC(c2ccnc(Nc3cnccn3)n2)C1 (stereo not drawn) ?
Marked response: 113.3

Exam item: Also check `CCn1nc(CC(C)C)cc1C(=O)N1CC[C@@H](O)C1`
Marked response: -2.224

Exam item: And the next one, `O=C(c1c2c(N3CCOCC3)ncnc2n2ccccc12)N1CCCC1` ?
Marked response: -0.1651

Sourced from ChEMBL document CHEMBL3988442
